Test summary: solvent given as SMILES
Condition context: in O
The label is label 1 for solvation free energy, 298 K below -5 kcal/mol and label 0 for solvation free energy, 298 K equal to or exceeding -5 kcal/mol.

As a guide, the following entries are already answered.
| Molecule | Cat |
| --- | --- |
| Cc1[nH]n(-c2ccccc2)c(=O)c1C(=O)c1ccccc1 | label 1 |
| COC=O | label 0 |
| CCOC(=O)c1ccccc1 | label 0 |
| O=C1c2ccccc2C(=O)c2c(Cl)cccc21 | label 1 |
| COC(=O)CC#N | label 1 |
| C=C(C)C1CC=C(C=O)CC1 (configuration not stated) | label 0 |
| OCCO | label 1 |
| COc1ncnc(NS(=O)(=O)c2ccc(N)cc2)c1OC | label 1 |

# TODO verify solvation free energy, 298 K < -5 kcal/mol strictly for this molecule: COc1ccccc1
label 0

Check if solvation free energy, 298 K falls below -5 kcal/mol for CCCCOCC(C)O (configuration not stated) .
label 1

Bench note: check whether CCCCOC(=O)c1ccccc1O shows solvation free energy, 298 K below -5 kcal/mol
label 0

Would you kindly verify if solvation free energy, 298 K of CC(=O)Oc1ccccc1 is strictly less than -5 kcal/mol?
label 0

Does the reported solvation free energy, 298 K of the following molecule sit strictly below -5 kcal/mol? CCCC(C)(C)O
label 0

is_below(solvation free energy, 298 K, -5 kcal/mol) for CCC(C)Br (configuration not stated) ?
label 0

API: query returns whether the molecule falls strictly under -5 kcal/mol in solvation free energy, 298 K. Query: O=C(O)c1ccc(C(=O)O)cc1
label 1

====

Test summary: solvent given as SMILES
Condition context: in c1ccc2ncccc2c1
Note to self: solvation free energy, 298 K under -4 kcal/mol means yes (1), ties and anything higher get no (0).

Take a look at these entries with their results.
| Mol | Cat |
| --- | --- |
| C1CCCC1 | no (0) |
| COC(C)=O | no (0) |
| CCBr | no (0) |
| c1ccccc1 | yes (1) |
| C1CCCCC1 | no (0) |

Quick check: solvation free energy, 298 K of CC(C)(C)Cl under -4 kcal/mol?
no (0)

Is the reported solvation free energy, 298 K for ClCCCl strictly below -4 kcal/mol?
yes (1)

Determine whether this compound shows solvation free energy, 298 K lower than -4 kcal/mol (ties excluded): CC(C)OC(C)C
no (0)

Answer whether the compound Cc1ccccc1 has solvation free energy, 298 K strictly less than -4 kcal/mol
yes (1)

====

Test summary: solvent given as SMILES
Condition context: in CCCCO
Quantity name: solvation free energy, 298 K (kJ/mol)
Just the number in kJ/mol, nothing appended.

Here are 6 compounds together with their reported answers.
| Compound | solvation free energy, 298 K / kJ/mol |
| --- | --- |
| C=C | -1.92 |
| COC | -8.58 |
| CC(=O)Oc1ccccc1C(=O)O | -56.3 |
| CN1C(=O)C(O)N=C(c2ccccc2)c2cc(Cl)ccc21 (configuration not stated) | -77.4 |
| CN(C)C | -12.2 |
| FC(F)(F)C(F)(F)C(F)(F)C(F)(F)C(F)(F)C(F)(F)C(F)(F)F | -5.4 |

# lookup: solvation free energy, 298 K of Fc1c(F)c(F)c(F)c(F)c1F
-14.5

Requested read-out: solvation free energy, 298 K. Entry: c1cc2c3c(cccc3c1)CC2
-36

// lookup solvation free energy, 298 K for O=c1cc(-c2ccc(O)c(O)c2)oc2cc(O)cc(O)c12
-106

What value of measured solvation free energy, 298 K is listed for CCCC#N ?
-19.3

For the compound C=CC=O , what solvation free energy, 298 K is on record?
-13.4

Data request, read-out solvation free energy, 298 K, for S=C=S
-12.9

Please report the recorded solvation free energy, 298 K for O=c1c2ccccc2sc2ccccc12 .
-49.7

Request the reported solvation free energy, 298 K associated with O=C(O)c1cccc(C(=O)O)c1
-56.5
